All values here come from patent US12600732B2.

target: BTK C481S (Homo sapiens, UniProt Q06187, C481S); assay: BTK degradation (Total BTK HTRF) in TMD8 cells expressing BTK-C481S; assay type: cell-based; set-up: endogenous in cells; host or cells: TMD8 BTK-C481S (clone2C3), Cas9 RNP knock-in; details: TMD8 BTK-C481S (clone2C3) cells, treatment time 4 h
# Fulfilled = DC50 below 4 nM (exclusive); Not fulfilled = DC50 at/above 4 nM

COMPOUND	CAT
CN1CCN([C@@H]2CCCN(c3cnc(C(N)=O)c(Nc4ccc(C5CCN(CC6CCN(c7ccc8c(=O)n(C9CCC(=O)NC9=O)ccc8c7)CC6)CC5)cc4)n3)C2)C1=O (some centres unmarked)	Fulfilled
CN1CCN([C@@H]2CCCN(c3cnc(C(N)=O)c(Nc4ccc(C5CN(CC6CCN(c7ccc8c(=O)n(C9CCC(=O)NC9=O)ccc8c7)CC6)C5)cc4)n3)C2)C1=O (some centres unmarked)	Fulfilled
CN1CCN([C@@H]2CCCN(c3cnc(C(N)=O)c(Nc4ccc(C5CCN(CC6CCN(c7ccc(NC8CCC(=O)NC8=O)nc7)CC6)CC5)cc4)n3)C2)C1=O (some centres unmarked)	Not fulfilled
NC(=O)c1ncc(N2CCC[C@H](N3CCOC3=O)C2)nc1Nc1ccc(N2CCC(C3CN(c4ccc5c(c4)C(=O)N(C4CCC(=O)NC4=O)C5=O)C3)CC2)cc1 (some centres unmarked)	Fulfilled
CN1CCN([C@@H]2CCCN(c3cnc(C(N)=O)c(Nc4ccc(C5CCN(C6CN(Cc7ccc8c(c7)C(=O)N(C7CCC(=O)NC7=O)C8=O)C6)CC5)cc4)n3)C2)C1=O (some centres unmarked)	Not fulfilled
